Tested on: primary HIV-1 isolates with polymorphisms at IN positions 124 and 125
measurement-description: Multiple-round infection of MT4 cells with primary HIV-1 isolates polymorphic at IN positions 124 and 125
Format: cell-based
condition-info: primary isolate, IN 124/125 AA
endpoint: Fold change in EC50 relative to parental NL4-3, KER2008 (A)
Numbers only.

Some solved entries appear below for comparison.
1) Cc1ccc(C2CC2)c(-c2cc(F)c3c(c2C)CCCO3)c1[C@H](OC1CC1)C(=O)O; 1
2) Cc1ccc(C2CC2)c(-c2ccc3c(c2)CCCO3)c1[C@H](OC(C)(C)C)C(=O)O; 1
3) Cc1ccc(C2CC2)c(-c2ccc3c(c2)CCCO3)c1[C@H](OC1CC1)C(=O)O; 1

Let's switch to this molecule now.
// sample Cc1cc(NS(=O)(=O)CC2CCCCC2)c(C)c(C(OC(C)(C)C)C(=O)O)c1-c1ccc2c(c1)CCCO2 (stereo not shown) [S-I-82, reference compound] , its Fold change in EC50 relative to parental NL4-3, KER2008 (A) was 1

* * *

Would you kindly list Fold change in EC50 relative to parental NL4-3, NV for each of these compounds?
System: recombinant NL4-3 viruses with polymorphisms at IN positions 124 and 125
measurement-description: Multiple-round infection of MT4 cells with recombinant NL4-3 viruses polymorphic at IN positions 124 and 125
Format: cell-based, HIV-1
condition-info: recombinant NL4-3, IN 124/125 NV
One number for each entry.

Use the examples below as a reference point.
1) Cc1ccc(C2CC2)c(-c2ccc3c(c2C)CCCO3)c1[C@H](OC1CC1)C(=O)O; 1
2) Cc1ccc(C2CC2)c(-c2ccc3c(c2)CCCO3)c1[C@H](OC(C)(C)C)C(=O)O; 1

Provide Fold change in EC50 relative to parental NL4-3, NV values for the following items, in order.
1. Cc1nc2ccccc2c(-c2ccc3c4c(ccnc24)CCO3)c1[C@H](OC(C)(C)C)C(=O)O [BI-224436, reference compound]
2. Cc1ccc(C2CC2)c(-c2cc(F)c3c(c2C)CCCO3)c1[C@H](OC1CC1)C(=O)O
3. Cc1ccc(C2CC2)c(-c2ccc3c(c2C)CCCO3)c1[C@H](OC(C)(C)C)C(=O)O
4. C[C@@H]1CCO[C@H]2Cn3cc(C(=O)NCc4ccc(F)cc4F)c(=O)c(O)c3C(=O)N12 [DTG, dolutegravir, reference compound]

[1, 0.4, 1, 2]

I have 2 compounds here; please give me Fold change in EC50 relative to parental NL4-3, NV for each one.
1. Cc1cc(NS(=O)(=O)CC2CCCCC2)c(C)c(C(OC(C)(C)C)C(=O)O)c1-c1ccc2c(c1)CCCO2 (centres unmarked) [S-I-82, reference compound]
2. Cc1ccc(C2CC2)c(-c2ccc3c(c2)CCCO3)c1[C@H](OC1CC1)C(=O)O

1: 5; 2: 1

* * *

tested-on: HIV-1 IN-LEDGF/p75 interaction (Human immunodeficiency virus type 1 group M subtype B)
measurement-description: biochemical
Rule for this label: satisfied means IC50 is less than 0.09 µM; not satisfied means IC50 is at least 0.09 µM.

1) Cc1ccc(C2CC2)c(-c2ccc3c(c2)CCCO3)c1[C@H](OC(C)(C)C)C(=O)O [BDM-2]; satisfied
2) Cc1ccc(C2CC2)c(-c2cc(F)c3c(c2C)CCCO3)c1[C@H](OC1CC1)C(=O)O [MUT916]; satisfied
3) Cc1cc(NS(=O)(=O)CC2CCCCC2)c(C)c(C(OC(C)(C)C)C(=O)O)c1-c1ccc2c(c1)CCCO2 (stereo not shown) [S-I-82, reference compound]; not satisfied
4) Cc1ccc(C2CC2)c(-c2ccc3c(c2)CCCO3)c1[C@H](OC1CC1)C(=O)O [MUT872]; not satisfied
5) Cc1ccc(C2CC2)c(-c2ccc3c(c2C)CCCO3)c1[C@H](OC1CC1)C(=O)O [MUT884]; satisfied

Next:
# strict comparison: is reported IC50 < 0.09 µM? input = Cc1ccc(C2CC2)c(-c2ccc3c(c2C)CCCO3)c1[C@H](OC(C)(C)C)C(=O)O [MUT871]
satisfied
